B1: ANKRD17 (parent)
chain: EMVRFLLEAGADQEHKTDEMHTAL

Variants of: B1
protocolNotes: protein stability index of a GFP-peptide fusion (GPS, HEK-293T) (PSI 1-6); higher = more stable;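 also: lentivirally expressed fusions sorted by FACS into six bins by GFP to DsRed ratio, PSI derived from sequencing read proportions per bin multiplied by bin number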
statedConditions: c terminus: a fixed tail appended
protein stability index of 3 or higher: y. Under 3: n.

Example entries begin here.
primarySequence: EMVRFLLEAGADQEHKTDGMHTAL
className: n

primarySequence: EMVRFLLEAGADQEHKTDSMHTAL
className: n

primarySequence: EMVRFLLEAGLDQEHKTDEMHTAL
className: n

primarySequence: EMVRFLLEAGNDQEHKTDEMHTAL
className: y

primarySequence: EMVRFLLEAGADQEHKYDEMHTAL
className: n

primarySequence: EMVRFLLEAGADQEHKTDEMHDAL
className: n

primarySequence: EMIRFLLEAGADQEHKTDEMHTAL
className: y

primarySequence: EMVRFLLEAGADQEHKMDEMHTAL
className: n

primarySequence: EMVRFGLEAGADQEHKTDEMHTAL
className: y

primarySequence: EMVRFLLEAGADQEHRTDEMHTAL
className: n

Q. Decide: protein stability index of EMVRFLLEAGADQEHKTDEMHQAL >= 3?
A. n

Q. Decide: is the reported value of protein stability index for EMVRFLLEAGPDQEHKTDEMHTAL equal to or greater than 3?
A. y

Q. Could you verify whether the entry EMVRFLLEAGADQEHATDEMHTAL shows protein stability index of no less than 3?
A. y

Q. State whether the measured protein stability index reaches 3, counting equality as reaching it, for EMVRFLLEAGACQEHKTDEMHTAL
A. n

Q. Reported protein stability index at or above 3? EMVRFLLEAGADQEHKTDEMHTLL
A. n

Q. Is protein stability index for EMVRFLLEAGADQEHKTDEMHTCL at or above 3?
A. n

Q. Check if protein stability index >= 3 (inclusive). Item: EMVRFLLFAGADQEHKTDEMHTAL
A. n

Q. For this variant, is measured protein stability index 3 or higher? EMVRFLLEAGADQEHKTDEMHTAC
A. n

Q. # bool: protein stability index of EMVRFLLEAGCDQEHKTDEMHTAL >= 3
A. n

Q. Is the recorded value of protein stability index equal to or greater than 3 for this variant? EMVRFLLEAGADQEHKTDEMHTAE
A. y

Q. Would you say EMVRQLLEAGADQEHKTDEMHTAL shows protein stability index at minimum 3?
A. y

Q. Determine whether measured protein stability index meets or exceeds 3 for EMVRFLPEAGADQEHKTDEMHTAL
A. y

Q. Could you please find out whether EMVRFLLLAGADQEHKTDEMHTAL has protein stability index that meets 3 or exceeds it?
A. n

Q. Determine whether this variant has protein stability index no lower than 3: EMVRFCLEAGADQEHKTDEMHTAL
A. y

Q. Is reported protein stability index greater than or equal to 3 here: VMVRFLLEAGADQEHKTDEMHTAL
A. n
